Source: paper PMC12136795

Biological target: T1, Lsm2-8 heteroheptamer WT (Saccharomyces cerevisiae, UniProt P38203;P57743;P40070;P40089;Q06406;P53905;P47093 …)
T1 sequence 1: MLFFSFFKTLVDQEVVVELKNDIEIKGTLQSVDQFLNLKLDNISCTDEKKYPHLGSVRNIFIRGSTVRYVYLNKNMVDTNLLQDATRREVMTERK
T1 sequence 2: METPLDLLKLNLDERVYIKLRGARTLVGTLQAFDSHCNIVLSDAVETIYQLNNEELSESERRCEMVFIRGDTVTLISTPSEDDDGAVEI
T1 sequence 3: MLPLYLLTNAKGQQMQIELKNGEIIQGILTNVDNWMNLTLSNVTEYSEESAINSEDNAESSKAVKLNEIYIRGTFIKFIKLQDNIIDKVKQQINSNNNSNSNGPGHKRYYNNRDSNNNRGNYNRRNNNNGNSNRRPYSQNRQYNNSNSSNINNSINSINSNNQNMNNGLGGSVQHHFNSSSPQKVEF
T1 sequence 4: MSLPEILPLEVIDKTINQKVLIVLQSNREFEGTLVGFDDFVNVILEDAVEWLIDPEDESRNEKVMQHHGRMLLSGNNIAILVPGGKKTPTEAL
T1 sequence 5: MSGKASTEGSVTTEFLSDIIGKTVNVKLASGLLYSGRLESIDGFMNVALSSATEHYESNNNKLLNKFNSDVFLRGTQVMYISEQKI
T1 sequence 6: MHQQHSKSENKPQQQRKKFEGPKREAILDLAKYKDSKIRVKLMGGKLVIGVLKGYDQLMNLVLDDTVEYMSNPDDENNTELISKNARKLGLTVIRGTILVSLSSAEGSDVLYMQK
T1 sequence 7: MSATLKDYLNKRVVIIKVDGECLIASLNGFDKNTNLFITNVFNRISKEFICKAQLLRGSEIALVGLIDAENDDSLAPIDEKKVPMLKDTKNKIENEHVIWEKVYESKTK
Experiment: fluorescence polarization; Hill 1.18; FP: 2x RNA stock 2 nM mixed 1:1 with protein, 100 mM NaCl, 20 mM Bis-Tris pH 7.0, 10 mM HCl, 1 mM TCEP, 5% glycerol, yeast tRNA, BSA. EMSA: 100 mM KCl, 20% sucrose, 20 mM Hepes pH 7, 1 mM EDTA, 1 mM TCEP, 0.01% Triton X-100 (RNA buffer), yeast tRNA, heparin, BSA, 30 min room temperature, 6% native PAGE at 4 C. CoSMoS buffer not in material.
Conditions: protein: recombinant; tags: His-tag removed with TEV; copies: 1;1;1;1;1;1;1; label: fluorophore
REPORTED_PROPERTY: Kd (nM)
Response body: numeric value in nM, unit text excluded.

Any idea what its Kd is? The binder is AGAGAUUUAUUUCGUUUUU (ssRNA, 3' cis-diol (2',3'-OH)) [U6 95-113-OH]
6.75
